test system: TK-10 renal; experiment: NCI tumour cell line growth inhibition, 48 h
Entries and their measured TGI follow.
QUANTITY NAME: TGI

MOLECULE	MEASUREMENT TARGET	REPORTED
Cc1cc(N2CCOCC2)nc(N(CCCNc2ccnc3cc(Cl)ccc23)Cc2ccco2)n1	TK-10 renal	12.3 µM
COc1ccc(/C=C2\CCC(CCN(C)C)(C3=CCCC3)C2=O)cc1Br (stereo not given)	TK-10 renal	20 µM
Cc1cn2c(/C=N/N=C(N)N)c(-c3ccccn3)nc2s1	TK-10 renal	32.8 µM
O=C1/C(=C/c2ccc(Cl)cc2)CCC/C1=C\c1ccc(Cl)cc1	TK-10 renal	> 100 µM
CC1(C)NCCC[C@]2(C)[C@H]3CC[C@@H]4[C@H]5[C@H](C(=O)/C=C/c6ccccn6)CC[C@]5(CO)CC[C@@]4(C)[C@]3(C)CC[C@@H]12	TK-10 renal	24.8 µM
O=C1c2ccccc2C(=O)c2c(Nc3cc4c5c(ccc6c7ccc8c9c(cc(Nc%10cccc%11c%10C(=O)c%10ccccc%10C%11=O)c(c3c56)c97)-c3ccccc3C8=O)C(=O)c3ccccc3-4)cccc21	TK-10 renal	96.1 µM
Cc1cccc(C(C)(C)C)c1NC(=O)CCc1nc(=S)[nH][nH]1	TK-10 renal	> 100 µM
CN(C(=O)C1=CCC2(CC1)OCCO2)c1ccccc1I	TK-10 renal	> 100 µM
COc1ccc(NC(=O)C(C)Oc2ccc(OCC3CCCCC3)cc2)cc1 (stereo not given)	TK-10 renal	> 100 µM
O=C(O)c1c(=O)cccc2ssc12	TK-10 renal	3.23 µM
C=C1C(OC(=O)/C=C/c2ccccc2)CC(OC(C)=O)C2(C)C1CC1CC(OC(C)=O)C(C)=C(C(OC(C)=O)C2OC(C)=O)C1(C)C (stereo not given)	TK-10 renal	> 100 µM
CC1CN(c2cc3c(cc2F)c(=O)c(C(=O)O)cn3-c2ccc(F)cn2)CC(C)N1 (stereo not given)	TK-10 renal	> 100 µM
N#Cc1c(N)nc(N2CCOCC2)c(C#N)c1-c1ccccn1	TK-10 renal	> 100 µM
CSc1nc2c(c(N3CCOCC3)n1)C(O)n1c(nc3ccccc31)S2 (stereo not given)	TK-10 renal	> 100 µM
CO/N=C(\COc1ccc2oc(-c3ccccc3)cc(=O)c2c1)c1ccc(OC)cc1	TK-10 renal	> 100 µM
CCOC(=O)c1c(C)n(C)c2c1cc(O)c1[nH]c3c(c12)CCCC3	TK-10 renal	60.9 µM
Cc1nc2[nH]ncn2c(=O)c1CCCl	TK-10 renal	> 10 µM
CC(=[N-])N1CCC[C@@H](Nc2c3ccccc3nc3ccccc23)C1.[Cl][Pt].[NH-]CCC[NH-]	TK-10 renal	> 46.1 µM
COc1ccc(C2=C(N)c3ncccc3C2=O)cc1	TK-10 renal	> 10 µM
C#Cc1cc(Br)c(OC(=O)C(C)(C)C)c(-c2cc(C#C)cc(Br)c2OC(=O)C(C)(C)C)c1	TK-10 renal	> 100 µM
